target: Tyrosine-protein phosphatase non-receptor type 1 (Homo sapiens) (UniProt P18031); test: Inhibition of PTP1B (unknown origin) using pNPP as substrate at 20 ug/ml by colorimetric assay
Sequence (P18031 whole entry): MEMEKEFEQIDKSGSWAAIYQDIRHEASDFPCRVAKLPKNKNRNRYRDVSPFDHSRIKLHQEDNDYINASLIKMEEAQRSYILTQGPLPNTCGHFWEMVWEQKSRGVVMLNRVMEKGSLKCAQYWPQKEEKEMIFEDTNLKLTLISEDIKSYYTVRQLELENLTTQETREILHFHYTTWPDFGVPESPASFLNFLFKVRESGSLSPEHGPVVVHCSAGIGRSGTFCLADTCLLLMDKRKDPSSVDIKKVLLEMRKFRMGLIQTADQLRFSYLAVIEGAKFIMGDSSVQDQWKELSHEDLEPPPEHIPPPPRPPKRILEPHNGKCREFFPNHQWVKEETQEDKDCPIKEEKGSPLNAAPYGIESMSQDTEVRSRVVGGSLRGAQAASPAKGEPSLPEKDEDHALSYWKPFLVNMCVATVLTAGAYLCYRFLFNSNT
TEST READOUT: inhibition (%)

[[record]]
structure_as_smiles = "O=C(O)c1cn(Cc2ccccc2)c2cc(F)ccc2c1=O"
readout_value = 0.7

[[record]]
structure_as_smiles = "O=C(O)c1cn(C2CC2)c2ccc(F)cc2c1=O"
readout_value = 0.8

[[record]]
structure_as_smiles = "O=C(NCc1ccccc1)c1cn(Cc2ccccc2)c2ccc(I)cc2c1=O"
readout_value = 61.8

[[record]]
structure_as_smiles = "O=C(OCc1ccc(F)cc1)c1cn(C2CC2)c2ccc(Cc3ccc(F)cc3)cc2c1=O"
readout_value = 73

[[record]]
structure_as_smiles = "O=C(O)c1cn(C2CC2)c2ccc(Cc3ccc(F)cc3)cc2c1=O"
readout_value = 71.1

[[record]]
structure_as_smiles = "O=C(NCc1ccccc1)c1cn(Cc2ccccc2)c2ccc(F)cc2c1=O"
readout_value = 41.4

[[record]]
structure_as_smiles = "O=C(O)c1cn(Cc2ccccc2)c2ccc(I)cc2c1=O"
readout_value = 3.1

[[record]]
structure_as_smiles = "Nc1ccc2c(c1)c(=O)c(C(=O)O)cn2Cc1ccc(F)cc1"
readout_value = 12.4

[[record]]
structure_as_smiles = "O=C(NCc1ccccc1)c1cn(C2CC2)c2cc(F)ccc2c1=O"
readout_value = 7.4

[[record]]
structure_as_smiles = "O=C(OCc1ccccc1)c1cn(C2CC2)c2ccc(I)cc2c1=O"
readout_value = 80.5

[[record]]
structure_as_smiles = "O=C(NCc1ccc(F)cc1)c1cn(C2CC2)c2ccc(I)cc2c1=O"
readout_value = 3.3

[[record]]
structure_as_smiles = "O=C(O)c1cn(C2CC2)c2ccc(I)cc2c1=O"
readout_value = 3.5

[[record]]
structure_as_smiles = "O=C(NCc1ccccc1)c1cn(C2CC2)c2ccc(I)cc2c1=O"
readout_value = 6.1

[[record]]
structure_as_smiles = "O=C(O)c1cn(C2CC2)c2ccc(Cc3ccccc3)cc2c1=O"
readout_value = 87.5

[[record]]
structure_as_smiles = "O=C(O)c1cn(C2CC2)c2ccc(N3CCN(Cc4ccccc4)CC3)cc2c1=O"
readout_value = 62.3

[[record]]
structure_as_smiles = "O=C(O)c1cn(Cc2ccccc2)c2ccc(F)cc2c1=O"
readout_value = 15.1

[[record]]
structure_as_smiles = "O=C(NCc1ccccc1)c1cn(C2CC2)c2ccc(F)cc2c1=O"
readout_value = 0.2

[[record]]
structure_as_smiles = "O=C(OCc1ccccc1)c1cn(Cc2ccccc2)c2ccc(Cc3ccccc3)cc2c1=O"
readout_value = 0.1

[[record]]
structure_as_smiles = "O=C(O)c1cn(Cc2ccccc2)c2ccc(Cc3ccccc3)cc2c1=O"
readout_value = 15.1

[[record]]
structure_as_smiles = "O=C(O)c1cn(Cc2ccc(F)cc2)c2ccc([N+](=O)[O-])cc2c1=O"
readout_value = 36.2


====

target: Tyrosine-protein phosphatase non-receptor type 11 (Homo sapiens) (UniProt Q06124); assay: Inhibition of SHP2 (unknown origin) using 3-o-methylfluorescein phosphatase substrate at 20 ug/ml by colorimetric assay
Sequence (Q06124 whole entry): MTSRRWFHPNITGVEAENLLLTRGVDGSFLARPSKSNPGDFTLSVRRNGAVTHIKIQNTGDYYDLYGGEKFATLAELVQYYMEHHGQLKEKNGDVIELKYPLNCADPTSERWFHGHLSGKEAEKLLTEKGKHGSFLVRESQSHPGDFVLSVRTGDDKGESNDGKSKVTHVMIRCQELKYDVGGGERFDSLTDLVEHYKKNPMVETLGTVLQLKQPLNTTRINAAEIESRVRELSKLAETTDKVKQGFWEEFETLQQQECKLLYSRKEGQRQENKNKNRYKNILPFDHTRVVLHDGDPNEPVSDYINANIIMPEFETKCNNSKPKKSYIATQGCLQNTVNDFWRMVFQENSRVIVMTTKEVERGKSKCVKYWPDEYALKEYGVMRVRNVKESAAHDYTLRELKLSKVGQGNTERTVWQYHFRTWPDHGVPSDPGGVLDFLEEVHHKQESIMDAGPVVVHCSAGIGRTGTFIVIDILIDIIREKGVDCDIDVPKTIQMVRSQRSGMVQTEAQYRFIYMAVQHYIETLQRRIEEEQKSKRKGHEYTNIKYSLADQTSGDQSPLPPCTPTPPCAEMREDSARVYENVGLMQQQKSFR
Consider the following molecules and their measured inhibition readings.
TEST READOUT: inhibition

[[record]]
structure_as_smiles = "O=C(O)/C(O)=C/C(=O)c1cccc(Cn2cc(C(=O)O)c(=O)c3cc(I)ccc32)c1"
readout_value = "< 50%"

[[record]]
structure_as_smiles = "O=C(O)c1cn(C2CC2)c2ccc(Cc3ccc(F)cc3)cc2c1=O"
readout_value = "< 50%"

[[record]]
structure_as_smiles = "COC(=O)c1cc(Cn2cc(C(=O)O)c(=O)c3cc(I)ccc32)ccc1O"
readout_value = "< 50%"

[[record]]
structure_as_smiles = "COC(=O)c1c(O)cccc1OCCCNC(=O)c1cn(Cc2ccc(F)cc2)c2ccc([N+](=O)[O-])cc2c1=O"
readout_value = "< 50%"

[[record]]
structure_as_smiles = "CCOC(=O)/C(O)=C/C(=O)c1cccc(Cn2cc(C(=O)O)c(=O)c3cc(I)ccc32)c1"
readout_value = "< 50%"

[[record]]
structure_as_smiles = "O=C(NCc1ccccc1)c1cn(Cc2ccccc2)c2ccc(I)cc2c1=O"
readout_value = "< 50%"

[[record]]
structure_as_smiles = "O=C(O)c1cn(C2CC2)c2ccc(Cc3ccccc3)cc2c1=O"
readout_value = "< 50%"

